These data points were gathered from the NIST ThermoML archive (doi:10.1016/j.jct.2017.03.004).

Assay: activity coefficient (dimensionless); of the first substance listed, at infinite dilution; xn = mol fraction of the nth substance listed
Conditions: 358.15 K; 101.33 kPa; Liquid; Chromatography; x1 = 0
Response key: Y means activity coefficient >= 40; N means activity coefficient < 40.

In [3]: df
Out[3]:
                                    compound  answer_label
 0  CCCOCCC [dipropyl ether] + N#C[N-]C#N.OCCC[n+]1ccccc1             Y
 1  CCCC(C)=O [pentan-2-one] + N#C[N-]C#N.OCCC[n+]1ccccc1             N
 2  CC1CCCCC1 [methylcyclohexane] + N#C[N-]C#N.OCCC[n+]1ccccc1             Y
 3  CC(C)CO [2-methyl-1-propanol] + N#C[N-]C#N.OCCC[n+]1ccccc1             N
 4  CCC[N+](=O)[O-] [1-nitropropane] + N#C[N-]C#N.OCCC[n+]1ccccc1             N
 5  CCCCCCCCC [nonane] + N#C[N-]C#N.OCCC[n+]1ccccc1             Y
 6  CC(C)O [propan-2-ol] + N#C[N-]C#N.OCCC[n+]1ccccc1             N
 7  CC(C)OC(C)C [diisopropyl ether] + N#C[N-]C#N.OCCC[n+]1ccccc1             Y
 8  c1ccsc1 [thiophene] + N#C[N-]C#N.OCCC[n+]1ccccc1             N
 9  C1CCOC1 [tetrahydrofuran] + N#C[N-]C#N.OCCC[n+]1ccccc1             N
10  Cc1ccccc1 [toluene] + N#C[N-]C#N.OCCC[n+]1ccccc1             N
11  CCCCCCCC [octane] + N#C[N-]C#N.OCCC[n+]1ccccc1             Y

---

Test: activity coefficient (dimensionless); of the first substance listed, at infinite dilution; xn = mol fraction of the nth substance listed
Settings: 368.15 K; 101.33 kPa; Liquid; Chromatography; x1 = 0
Reported activity coefficient values are given for each entry in this list.
observed property: activity coefficient

>>> print(df.to_string())
                                   molecule  recorded_result
0  CCCCO [butan-1-ol] + N#C[N-]C#N.OCCC[n+]1ccccc1             3.05
1  Cc1ccccc1 [toluene] + N#C[N-]C#N.OCCC[n+]1ccccc1             9.85
2  Cc1ccc(C)cc1 [1,4-dimethylbenzene] + N#C[N-]C#N.OCCC[n+]1ccccc1             16.2

---

Experiment: activity coefficient (dimensionless); of the first substance listed, at infinite dilution; xn = mol fraction of the nth substance listed
Details: 318.15 K; 101.33 kPa; Liquid; Chromatography; x1 = 0
Output 1 for records whose activity coefficient is lower than 40, 0 for records at or above 40.

>>> df
                                   compound  answer_label
0  C1CCCCCC1 [cycloheptane] + N#C[N-]C#N.OCCC[n+]1ccccc1             0
1  CC(C)O [propan-2-ol] + N#C[N-]C#N.OCCC[n+]1ccccc1             1
2  CC(C)CC(C)(C)C [2,2,4-trimethylpentane] + N#C[N-]C#N.OCCC[n+]1ccccc1             0
3  CCC(C)(C)OC [2-methoxy-2-methylbutane] + N#C[N-]C#N.OCCC[n+]1ccccc1             0
4  CC#N [acetonitrile] + N#C[N-]C#N.OCCC[n+]1ccccc1             1
5  CCCc1ccccc1 [propylbenzene] + N#C[N-]C#N.OCCC[n+]1ccccc1             1
6  C#CCCCCCC [1-octyne] + N#C[N-]C#N.OCCC[n+]1ccccc1             0
